# TESTED_SYSTEM: Transthyretin (Homo sapiens) (UniProt P02766)
# METHOD: Stabilization of wild type human transthyretin expressed in Escherichia coli BL21(DE3) assessed as fibril formation at 7.2 uM preincubated for 30 mins with transthyretin followed by measuring after 72 hrs maintaining pH of 4.4 by UV-Visible spectrophotometer relative to control
Measured Activity, listed per entry for reference.
Report as a plain number; the unit % is understood.

Before answering, review these 2 worked examples.
1) O=C(O)CO/N=C/c1cccc(OCC(=O)O)c1; 100
2) O=C(O)CCO/N=C/c1ccccc1O; 38

Activity for O=C(O)CCO/N=C/c1cc(O)cc(O)c1 ?
39
